Entry source: PubChem BioAssay (NCI)

Test system: SF-295 CNS
run.description: NCI tumour cell line growth inhibition, 48 h
We begin with a simple list: items and their reported TGI.

Some entries whose results are on file:
{"compound": "COc1cc2oc3cc(=O)cc4oc(-c5ccccc5)cc(c2c2c1CCC(c1ccccc1)O2)c43 (stereo not given)", "system.under.test": "SF-295 CNS", "TGI": "54.9 µM"}
{"compound": "COc1cc(-c2cc(-c3ccccc3)nc(-c3c(OC)ccc4c(C)cc(=O)oc34)c2)cc(OC)c1OC", "system.under.test": "SF-295 CNS", "TGI": "> 100 µM"}
{"compound": "COc1cc2ccccc2oc1=O", "system.under.test": "SF-295 CNS", "TGI": "> 100 µM"}

stdin: GET TGI where system = SF-295 CNS and item = `CNc1ccc2c(c1)[C@@]1(C)c3ccccc3[C@@H](C2)N1C`
stdout: > 100 µM

stdin: Report value only: TGI, SF-295 CNS, `N#CCCN(CCCN(CCCN(C(=O)Nc1ccccc1)c1ccccc1)C(=O)Nc1ccccc1)C(=O)Nc1ccccc1`
stdout: > 100 µM

stdin: Under SF-295 CNS, report TGI for `Cn1c(O)c(C=Nc2ccccc2[N+](=O)[O-])c(=O)n(C)c1=O`
stdout: > 100 µM

stdin: Report TGI from SF-295 CNS testing of `C[C@H](NC(=O)c1ccc(CNC(=O)/C=C/c2cccc(Oc3ccccc3)c2)cc1)c1ccccc1`
stdout: > 100 µM

stdin: Tell me TGI of `COc1ccc(N=Cc2ccc(N(CCC#N)S(=O)(=O)c3ccccc3)cc2)cc1` when tested on SF-295 CNS.
stdout: > 100 µM

stdin: Report TGI under test system SF-295 CNS for `Cc1ccc(-c2nc(C#N)c(S(=O)(=O)n3nc(C)cc3N)o2)cc1` .
stdout: 30.5 µM

stdin: Recall the reported TGI of `N.N.N.N.N.[Cl-].[Co+3].c1ccc(-c2nn[n-]n2)cc1` on SF-295 CNS and write it down.
stdout: > 100 µM
